# ASSAYED_SYSTEM: HDAC6 (Homo sapiens, UniProt Q9UBN7)
# Sequence (Q9UBN7 1-1215): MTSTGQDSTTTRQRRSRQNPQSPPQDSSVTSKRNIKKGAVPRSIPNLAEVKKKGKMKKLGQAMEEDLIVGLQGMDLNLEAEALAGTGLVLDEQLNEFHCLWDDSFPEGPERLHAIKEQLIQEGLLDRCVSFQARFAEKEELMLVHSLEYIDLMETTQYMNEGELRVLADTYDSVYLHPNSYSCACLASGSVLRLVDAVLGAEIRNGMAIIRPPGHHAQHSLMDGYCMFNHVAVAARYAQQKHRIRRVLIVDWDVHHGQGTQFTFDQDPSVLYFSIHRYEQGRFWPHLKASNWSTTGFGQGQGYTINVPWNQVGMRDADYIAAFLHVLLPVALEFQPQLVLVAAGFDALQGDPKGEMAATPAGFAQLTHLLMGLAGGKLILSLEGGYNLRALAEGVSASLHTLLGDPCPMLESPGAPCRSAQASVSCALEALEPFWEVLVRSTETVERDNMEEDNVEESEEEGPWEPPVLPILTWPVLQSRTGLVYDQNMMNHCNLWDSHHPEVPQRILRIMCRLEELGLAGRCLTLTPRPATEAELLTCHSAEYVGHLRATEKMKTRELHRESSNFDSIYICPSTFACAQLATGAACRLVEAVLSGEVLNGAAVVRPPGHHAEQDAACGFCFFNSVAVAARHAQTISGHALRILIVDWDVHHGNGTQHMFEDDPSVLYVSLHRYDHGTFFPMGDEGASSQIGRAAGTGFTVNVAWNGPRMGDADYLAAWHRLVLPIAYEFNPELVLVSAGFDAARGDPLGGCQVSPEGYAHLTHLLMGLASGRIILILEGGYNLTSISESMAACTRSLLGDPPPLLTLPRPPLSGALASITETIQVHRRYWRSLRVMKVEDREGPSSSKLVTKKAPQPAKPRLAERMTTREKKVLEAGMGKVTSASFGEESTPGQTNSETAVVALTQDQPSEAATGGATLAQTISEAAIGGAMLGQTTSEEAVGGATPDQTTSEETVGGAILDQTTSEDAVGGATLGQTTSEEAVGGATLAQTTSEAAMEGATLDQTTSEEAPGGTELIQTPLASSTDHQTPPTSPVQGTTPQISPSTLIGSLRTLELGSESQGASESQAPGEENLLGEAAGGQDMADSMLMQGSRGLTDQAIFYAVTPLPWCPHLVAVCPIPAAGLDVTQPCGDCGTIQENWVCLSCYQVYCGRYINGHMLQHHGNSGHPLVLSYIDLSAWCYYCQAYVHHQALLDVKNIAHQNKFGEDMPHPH
EXPERIMENTAL_READOUT: IC50

[in] // map "Nc1ccccc1NC(=O)CCCCCC(=O)Nc1cccc(C(F)(F)F)c1" to recorded IC50 (system: HDAC6 (Homo sapiens, UniProt Q9UBN7))
[out] > 50 µM

====

# ASSAYED_SYSTEM: HDAC1 (Homo sapiens)
# Sequence (Q13547 whole entry): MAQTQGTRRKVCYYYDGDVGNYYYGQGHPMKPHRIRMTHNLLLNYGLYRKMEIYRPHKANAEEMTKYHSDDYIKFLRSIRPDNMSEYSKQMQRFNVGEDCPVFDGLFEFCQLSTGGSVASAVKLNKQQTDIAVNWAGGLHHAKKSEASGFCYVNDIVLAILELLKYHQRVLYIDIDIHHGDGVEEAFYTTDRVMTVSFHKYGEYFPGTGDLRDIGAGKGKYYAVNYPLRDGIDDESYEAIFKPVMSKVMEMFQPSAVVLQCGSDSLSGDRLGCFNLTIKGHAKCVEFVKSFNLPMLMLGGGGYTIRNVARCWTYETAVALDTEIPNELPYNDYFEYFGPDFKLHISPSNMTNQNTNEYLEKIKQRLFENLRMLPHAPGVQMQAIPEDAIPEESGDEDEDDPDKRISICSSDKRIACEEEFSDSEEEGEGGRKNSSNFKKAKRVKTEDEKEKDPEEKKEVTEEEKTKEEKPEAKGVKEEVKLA
EXPERIMENTAL_READOUT: IC50 (nM)
A number alone suffices; assume nM.

[in] Query IC50 on HDAC1 (Homo sapiens) for "Nc1ccccc1NC(=O)CCCCCC(=O)Nc1cccc(C(F)(F)F)c1"
[out] 84

====

# ASSAYED_SYSTEM: UniProt Q9BY41
# Sequence (Q9BY41 whole entry): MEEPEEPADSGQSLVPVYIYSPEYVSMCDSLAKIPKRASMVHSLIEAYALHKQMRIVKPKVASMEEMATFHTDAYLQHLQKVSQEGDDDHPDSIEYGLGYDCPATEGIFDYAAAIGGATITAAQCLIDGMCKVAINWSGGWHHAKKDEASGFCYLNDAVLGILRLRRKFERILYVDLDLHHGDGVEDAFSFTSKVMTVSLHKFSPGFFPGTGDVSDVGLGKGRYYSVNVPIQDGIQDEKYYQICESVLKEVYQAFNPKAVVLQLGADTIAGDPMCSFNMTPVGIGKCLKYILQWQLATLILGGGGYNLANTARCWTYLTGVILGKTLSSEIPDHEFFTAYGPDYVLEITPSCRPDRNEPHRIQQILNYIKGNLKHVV
pIC50: −log10 of the molar value.
EXPERIMENTAL_READOUT: pIC50

[in] Write down the reported pIC50 of "Nc1ccccc1NC(=O)CCCCCC(=O)Nc1cccc(C(F)(F)F)c1" , test system: UniProt Q9BY41.
[out] < 4.30
